- System: PPARg:RXRa DBDmut IVT, anti-RXR (DBD mutation: RXRa K156A/R161A, NR concentration 270 nM, RXRa partner concentration 90 nM)
- ASSAY METHOD TEXT: PBM binding z-score (relative to random genomic background probes); higher = stronger binding; sequences stand for … in GC…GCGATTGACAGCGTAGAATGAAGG
Assign class by PBM binding z-score: not lower than -0.2 means class 1; lower than -0.2 means class 0.

Answered examples (5):
                           seq_string  class_name
0  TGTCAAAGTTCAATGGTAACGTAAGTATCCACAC     class 0
1  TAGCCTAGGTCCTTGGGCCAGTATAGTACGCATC     class 0
2  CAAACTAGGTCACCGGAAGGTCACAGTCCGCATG     class 1
3  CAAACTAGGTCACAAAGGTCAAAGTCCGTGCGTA     class 1
4  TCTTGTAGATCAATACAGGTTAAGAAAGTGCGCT     class 1

Challenge: Decide: is the reported value of PBM binding z-score for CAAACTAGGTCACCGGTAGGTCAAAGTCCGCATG equal to or greater than -0.2?
Response given: class 1

Challenge: Cool, now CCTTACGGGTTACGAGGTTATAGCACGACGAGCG
Response given: class 1

Challenge: Cool, now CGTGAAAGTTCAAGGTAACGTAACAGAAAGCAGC
Response given: class 1

---

- Test system: THRa homodimer (NR concentration 90 nM)
- ASSAY METHOD TEXT: PBM binding z-score (relative to random genomic background probes); higher = stronger binding; sequences stand for … in GC…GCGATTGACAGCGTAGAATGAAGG
Assign class by PBM binding z-score: not lower than 0.4 means Condition met; lower than 0.4 means Condition not met.

In [3]: df
Out[3]:
                           seq_string         class_name
0  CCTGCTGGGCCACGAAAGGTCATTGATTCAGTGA      Condition met
1  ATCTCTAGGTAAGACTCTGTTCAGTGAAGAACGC      Condition met
2  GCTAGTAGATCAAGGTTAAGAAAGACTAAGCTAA  Condition not met
3  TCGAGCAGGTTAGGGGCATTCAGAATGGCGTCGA  Condition not met

Now turn to the next sequence.
Challenge: Decide: is the reported value of PBM binding z-score for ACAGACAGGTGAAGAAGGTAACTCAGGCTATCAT equal to or greater than 0.4?
Response given: Condition not met

---

- System: RARg homodimer (NR concentration 270 nM)
- ASSAY METHOD TEXT: PBM binding z-score (relative to random genomic background probes); higher = stronger binding; sequences stand for … in GC…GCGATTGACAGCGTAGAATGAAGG
Assign class by PBM binding z-score: not lower than 0.7 means yes; lower than 0.7 means no.

>>> df
                           seq_string  class_name
0  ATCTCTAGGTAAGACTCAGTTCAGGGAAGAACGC          no
1  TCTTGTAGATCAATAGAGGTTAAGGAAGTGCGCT          no
2  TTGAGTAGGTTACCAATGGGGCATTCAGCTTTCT         yes
3  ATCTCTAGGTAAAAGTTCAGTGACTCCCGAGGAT         yes
4  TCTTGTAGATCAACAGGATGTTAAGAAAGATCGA          no

Challenge: Decide: is the reported value of PBM binding z-score for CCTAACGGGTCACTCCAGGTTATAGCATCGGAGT equal to or greater than 0.7?
Response given: yes

Challenge: Cool, now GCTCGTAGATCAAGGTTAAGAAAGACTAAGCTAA
Response given: no

Challenge: Cool, now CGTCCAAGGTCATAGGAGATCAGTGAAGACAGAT
Response given: yes

Challenge: Cool, now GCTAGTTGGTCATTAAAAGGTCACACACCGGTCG
Response given: yes

Challenge: Cool, now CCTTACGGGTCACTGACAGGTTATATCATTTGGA
Response given: yes

---

PBM binding z-score values, listed per item
- System: LXRa:RXRa (NR concentration 270 nM, RXRa partner concentration 90 nM)
- ASSAY METHOD TEXT: PBM binding z-score (relative to random genomic background probes); higher = stronger binding; sequences stand for … in GC…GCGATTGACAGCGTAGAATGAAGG
No unit in the answer, please; the number alone is enough.

Observe how each entry below is paired with its result.
>>> print(df.to_string())
                           seq_string                            assayed_system  numeric_result
0  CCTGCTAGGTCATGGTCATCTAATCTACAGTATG  LXRa:RXRa (NR concentration 270 nM, RXRa partner concentration 90 nM)            2.73
1  ACTATTAGTTGACTTAGGGCACCCGATACGACGC  LXRa:RXRa (NR concentration 270 nM, RXRa partner concentration 90 nM)          -0.208
2  ACTATTAGTTGAGACGAGGGCCACCGATAGGTTG  LXRa:RXRa (NR concentration 270 nM, RXRa partner concentration 90 nM)          -0.102
3  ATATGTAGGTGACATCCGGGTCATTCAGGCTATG  LXRa:RXRa (NR concentration 270 nM, RXRa partner concentration 90 nM)            2.62
4  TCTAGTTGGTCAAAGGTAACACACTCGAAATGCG  LXRa:RXRa (NR concentration 270 nM, RXRa partner concentration 90 nM)             1.4
5  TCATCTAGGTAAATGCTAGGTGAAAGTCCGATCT  LXRa:RXRa (NR concentration 270 nM, RXRa partner concentration 90 nM)           0.411
6  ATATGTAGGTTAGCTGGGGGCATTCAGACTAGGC  LXRa:RXRa (NR concentration 270 nM, RXRa partner concentration 90 nM)            3.73
7  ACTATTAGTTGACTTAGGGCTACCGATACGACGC  LXRa:RXRa (NR concentration 270 nM, RXRa partner concentration 90 nM)          -0.121

Challenge: Quick one: PBM binding z-score of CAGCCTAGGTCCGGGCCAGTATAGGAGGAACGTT ?
Response given: -1.11

Challenge: Cool, now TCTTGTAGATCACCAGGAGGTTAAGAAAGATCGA
Response given: 1.28

Challenge: Cool, now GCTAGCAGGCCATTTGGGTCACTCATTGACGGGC
Response given: -0.0107

Challenge: Cool, now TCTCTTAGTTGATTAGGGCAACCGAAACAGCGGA
Response given: 0.799

---

PBM binding z-score values, listed per item
- Tested on: RARa:RXR (NR concentration 270 nM, RXRa partner concentration 90 nM)
- ASSAY METHOD TEXT: PBM binding z-score (relative to random genomic background probes); higher = stronger binding; sequences stand for … in GC…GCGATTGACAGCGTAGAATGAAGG
No unit in the answer, please; the number alone is enough.

>>> print(df.to_string())
                           seq_string                            assayed_system  numeric_result
0  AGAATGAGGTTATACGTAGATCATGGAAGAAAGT  RARa:RXR (NR concentration 270 nM, RXRa partner concentration 90 nM)            1.77

Let us examine a further case.
Challenge: Quick one: PBM binding z-score of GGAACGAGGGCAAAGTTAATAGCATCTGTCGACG ?
Response given: 1.24

---

- Test system: RARb homodimer (NR concentration 270 nM)
- ASSAY METHOD TEXT: PBM binding z-score (relative to random genomic background probes); higher = stronger binding; sequences stand for … in GC…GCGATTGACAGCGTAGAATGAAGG
TEST READOUT: PBM binding z-score
No unit in the answer, please; the number alone is enough.

Observe how each entry below is paired with its result.
In [3]: df
Out[3]:
                           seq_string                            assayed_system         test_readout  numeric_result
0  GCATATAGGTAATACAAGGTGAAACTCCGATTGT  RARb homodimer (NR concentration 270 nM)  PBM binding z-score           0.806
1  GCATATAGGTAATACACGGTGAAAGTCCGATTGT  RARb homodimer (NR concentration 270 nM)  PBM binding z-score          0.0641
2  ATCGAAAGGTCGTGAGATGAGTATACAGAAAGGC  RARb homodimer (NR concentration 270 nM)  PBM binding z-score            2.35
3  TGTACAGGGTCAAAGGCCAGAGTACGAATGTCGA  RARb homodimer (NR concentration 270 nM)  PBM binding z-score            3.31
4  GAGACAGGGTCAAGGCCAGAGTACGCGTATTGAT  RARb homodimer (NR concentration 270 nM)  PBM binding z-score            3.45

Challenge: Quick one: PBM binding z-score of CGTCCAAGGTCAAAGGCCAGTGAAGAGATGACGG ?
Response given: 4.03

Challenge: Cool, now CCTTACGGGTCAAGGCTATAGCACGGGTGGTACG
Response given: 2.91

Challenge: Cool, now TCTTGTAGATCAACAGGAGGTGAAGAAAGATCGA
Response given: 0.000947

Challenge: Cool, now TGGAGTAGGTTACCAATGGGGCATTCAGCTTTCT
Response given: 1.16

Challenge: Cool, now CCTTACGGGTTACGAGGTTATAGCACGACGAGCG
Response given: 1.24
